# assay-target: T1, 4H432-AA
# T1 chain: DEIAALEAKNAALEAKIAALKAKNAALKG
# experiment: two-hybrid library CCmax;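 note: natural log of median RNA to DNA barcode read ratio; higher means stronger binding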
# assay-setup: mean of both orientations
parameter: interaction score
Simply state the number, no unit and no words.

Reference set, count: 5
binder: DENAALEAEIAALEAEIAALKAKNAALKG [4H1040-AA]
interaction score: -1.63
--
binder: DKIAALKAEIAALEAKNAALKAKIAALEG [4H2621-AA]
interaction score: -1.5
--
binder: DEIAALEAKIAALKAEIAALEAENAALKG [4H324-AA]
interaction score: -0.834
--
binder: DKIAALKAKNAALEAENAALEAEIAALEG [4H2961-AA]
interaction score: -0.0165
--
binder: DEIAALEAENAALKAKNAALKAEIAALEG [4H249-AA]
interaction score: -1.72

Requested read-out: interaction score. Entry: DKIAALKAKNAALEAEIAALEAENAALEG [4H2947-AA] 2.09

Data provenance: paper PMC10397247
